From: the supplement of paper PMC10567573

B1: LOC100129726 (parent)
chain: VHTGCHKKLGPEARRPRTRWGKN

# Variants of: B1
# experiment_notes: protein stability index of a GFP-peptide fusion (GPS, HEK-293T) (PSI 1-6); higher = more stable;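 further: lentivirally expressed fusions sorted by FACS into six bins by GFP to DsRed ratio, PSI derived from sequencing read proportions per bin multiplied by bin number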
# test_settings: c terminus: native
Decide by protein stability index: equal to or exceeding 2 means 1, less means -1.

Reference set (8 entries):
mutation_list: G21N
class_label: 1
--
mutation_list: L9N
class_label: 1
--
mutation_list: R14I
class_label: 1
--
mutation_list: R15N
class_label: 1
--
mutation_list: G21M
class_label: 1
--
mutation_list: H2Q
class_label: 1
--
mutation_list: E12H
class_label: 1
--
mutation_list: W20S
class_label: 1

Please tell me: is the variant `G10H` at or over 2 in terms of protein stability index?
-1

Please tell me: is the variant `R19F` at or over 2 in terms of protein stability index?
1

Please tell me: is the variant `G4C` at or over 2 in terms of protein stability index?
1

Please tell me: is the variant `A13K` at or over 2 in terms of protein stability index?
-1

Please tell me: is the variant `H2N` at or over 2 in terms of protein stability index?
1

Please tell me: is the variant `G10V` at or over 2 in terms of protein stability index?
-1

Please tell me: is the variant `G4I` at or over 2 in terms of protein stability index?
1

Please tell me: is the variant `G21A` at or over 2 in terms of protein stability index?
1
